Tested on: SB.mhdgc-1
procedure.summary: area under the dose-response curve of % viability (trapezoidal, 11 doses) (% viability x log10 concentration); higher = less cytotoxic
condition.label: SB.mhdgc-1 (hereditary c.1380delA CDH1 gastric cancer)
Structures can show the parent of a compound that is named as a salt.
reported.endpoint: area under the dose-response curve
API note: the answer field is a bare number with no unit suffix.

# count of solved cases: 3
>>> measured("NC12CC3CC(CC(C3)C1)C2 [Amantadine hydrochloride] (top concentration 46.0829 µM)")
438
>>> measured("Cn1cc(-c2ccc3ncc(Cc4ccc5ncccc5c4)n3n2)cn1 [NVP-BVU-972] (top concentration 46.0829 µM)")
374
>>> measured("NC(=O)c1ncn([C@@H]2O[C@H](CO)[C@@H](O)[C@H]2O)c1N [Acadesine] (top concentration 46.0829 µM)")
549

In plain terms, CCCNC(=O)[C@H]1O[C@@H]1C(=O)N[C@H](C(=O)N1CCC[C@H]1C(=O)OC)C(C)CC (some centres not stated) [CA-074 Me] (top concentration 46.0829 µM) has a documented area under the dose-response curve of 512

In plain terms, CCN(CC)CCOc1ccc(Cc2ccccc2)cc1 [Tesmilifene hydrochloride] (top concentration 46.0829 µM) has a documented area under the dose-response curve of 584

In plain terms, O=C(O)CC/C=C\CC[C@@H]1[C@@H](N2CCCCC2)[C@@H](O)C[C@@H]1OCc1ccc(-c2ccccc2)cc1 [Vapiprost hydrochloride] (top concentration 46.0829 µM) has a documented area under the dose-response curve of 560

In plain terms, C/C=C/C/C=C/CCC(=O)[C@H]1O[C@H]1C(N)=O [Cerulenin] (top concentration 46.0829 µM) has a documented area under the dose-response curve of 475

In plain terms, Cc1ccc(C(=O)Nc2ccc([S+](=O)([O-])O)c3cc([S+](=O)([O-])O)cc([S+](=O)([O-])O)c23)cc1NC(=O)c1cccc(NC(=O)Nc2cccc(C(=O)Nc3cc(C(=O)Nc4ccc([S+](=O)([O-])O)c5cc([S+](=O)([O-])O)cc([S+](=O)([O-])O)c45)ccc3C)c2)c1 [Suramin sodium] (top concentration 46.0829 µM) has a documented area under the dose-response curve of 480

In plain terms, CC(C)Oc1ccc(C(=O)N[C@H](CNC(=O)CN(C)C)Cc2ccc(-c3cn4cccc([C@H](C)O)c4n3)cc2)cc1Cl (top concentration 46.0829 µM) has a documented area under the dose-response curve of 397

In plain terms, NC(=O)c1nnn(Cc2cc(Cl)c(C(=O)c3ccc(Cl)cc3)c(Cl)c2)c1N [Carboxyamidotriazole] (top concentration 46.0829 µM) has a documented area under the dose-response curve of 585

In plain terms, O=C(CCCN1CCN(c2ccc(F)cc2)CC1)NC1c2ccccc2CSc2ccccc21 (configuration not stated) [Monatepil] (top concentration 46.0829 µM) has a documented area under the dose-response curve of 597

In plain terms, CO[C@H]1/C=C\C=C(\C)C(=O)NC2=CC(=O)C(NCCN(C)C)=C(C[C@@H](C)C[C@H](OC)[C@H](O)[C@@H](C)/C=C(/C)[C@@H]1OC(N)=O)C2=O [Alvespimycin hydrochloride] (top concentration 46.0829 µM) has a documented area under the dose-response curve of 271

====

Tested on: SB.msgc-1
procedure.summary: area under the dose-response curve of % viability (trapezoidal, 11 doses) (% viability x log10 concentration); higher = less cytotoxic
condition.label: SB.msgc-1 (sporadic gastric cancer)
The threshold is inclusive: area under the dose-response curve of exactly 500 counts as class 1; values below receive class 0.

Below, 3 molecules whose answers are already recorded.
>>> group("COc1ccc2c(c1)c(CC(=O)OCC(=O)O)c(C)n2C(=O)c1ccc(Cl)cc1 [Acemetacin] (top concentration 46.0829 µM)")
"class 1"
>>> group("O=C(O)C1CCCN(CCC=C(c2ccccc2)c2ccccc2)C1 (stereo unspecified) (top concentration 46.0829 µM)")
"class 1"
>>> group("COc1cc2nc(N3CCCN(C)CC3)nc(NC3CCN(Cc4ccccc4)CC3)c2cc1OC (top concentration 46.0829 µM)")
"class 0"

*Q* area under the dose-response curve >= 500 for Fc1ccc(C(c2ccc(F)cc2)N2CCN(C/C=C/c3ccccc3)CC2)cc1 [Flunarizine] (top concentration 46.0829 µM) ?
*A* class 1

*Q* area under the dose-response curve >= 500 for CCCC[N+]1(C)[C@@H]2CC(OC(=O)[C@H](CO)c3ccccc3)C[C@H]1[C@@H]1O[C@@H]12 (stereo partly specified) [Butylscopolamine bromide] (top concentration 46.0829 µM) ?
*A* class 1

====

Test system: SB.msgc-1
procedure.summary: viability at highest tested concentration (MAXR) relative to DMSO; higher = less cytotoxic
condition.label: SB.msgc-1 (sporadic gastric cancer)
Structures can show the parent of a compound that is named as a salt.
reported.endpoint: viability (%)
Hi! Could you send only the number? It should be in %, unit omitted.

>>> measured("C=CCc1ccc(O)c(-c2ccc(O)c(CC=C)c2)c1 [Honokiol] (top concentration 46.0829 µM)")
79.4
>>> measured("CCCC(CCC)C(=O)[O-] [Valproic acid sodium salt] (top concentration 46.0829 µM)")
46.3
>>> measured("O=C1CCc2cc(OCCCCc3nnnn3C3CCCCC3)ccc2N1 [Cilostazol] (top concentration 46.0829 µM)")
47.2

In plain terms, C#CCC(Cc1cnc2nc(N)nc(N)c2n1)c1ccc(C(=O)N[C@@H](CCC(=O)O)C(=O)O)cc1 (some centres not stated) [Pralatrexate] (top concentration 46.0829 µM) has a documented viability of 36.8

In plain terms, Oc1cc2c(cc1O)C1c3ccc(O)c(O)c3OCC1(O)C2 (configuration not stated) [Hematoxylin] (top concentration 46.0829 µM) has a documented viability of 103

In plain terms, OCCn1cc(-c2cnc3nnn(Cc4ccc5ncccc5c4)c3n2)cn1 (top concentration 46.0829 µM) has a documented viability of 93.7

In plain terms, OCCn1cc(-c2ccc3c(c2)CC/C3=N\O)c(-c2ccncc2)n1 (top concentration 46.0829 µM) has a documented viability of 91.9

====

// area under the dose-response curve lookup, one value per entry
Tested on: SB.mhdgc-1
procedure.summary: area under the dose-response curve of % viability (trapezoidal, 11 doses) (% viability x log10 concentration); higher = less cytotoxic
condition.label: SB.mhdgc-1 (hereditary c.1380delA CDH1 gastric cancer)
API note: the answer field is a bare number with no unit suffix.

>>> measured("COc1cc2nccc(Oc3ccc(NC(=O)NC4CC4)c(Cl)c3)c2cc1C(N)=O [Lenvatinib] (top concentration 46.0829 µM)")
399

In plain terms, CC[C@H]1OC(=O)[C@H](C)[C@@H](O[C@H]2C[C@@](C)(OC)[C@@H](O)[C@H](C)O2)[C@H](C)[C@@H](O[C@@H]2O[C@H](C)C[C@H](N(C)C)[C@H]2O)[C@](C)(OC)C[C@@H](C)C(=O)[C@H](C)[C@@H](O)[C@]1(C)O [Clarithromycin] (top concentration 46.0829 µM) has a documented area under the dose-response curve of 386

====

Tested on: SB.msgc-1
procedure.summary: viability at highest tested concentration (MAXR) relative to DMSO; higher = less cytotoxic
condition.label: SB.msgc-1 (sporadic gastric cancer)
Structures can show the parent of a compound that is named as a salt.
// viability lookup, one value per entry
Hi! Could you send only the number? It should be in %, unit omitted.

# count of solved cases: 10
>>> measured("C[C@@H]1CC[C@@]2(CC[C@]3(C)\\C(=C/C[C@@H]4[C@@]5(C)C[C@@H](O)[C@H](O)[C@@](C)(CO)[C@@H]5CC[C@@]34C)[C@@H]2[C@H]1C)C(O)=O [Asiatic acid] (top concentration 46.0829 µM)")
102
>>> measured("COc1cc2c(cc1O)CCC1C2CC[C@@]2(C)C1CC[C@@H]2O (stereo partly drawn) [2-Methoxyestradiol] (top concentration 46.0829 µM)")
87
>>> measured("C[N]1C=NC=C1[C@@](N)(C2=CC=C(Cl)C=C2)C3=CC=C4N(C)C(=O)\\C=C(\\C5=CC=CC(=C5)Cl)C4=C3 [Tipifarnib] (top concentration 46.0829 µM)")
24.2
>>> measured("NNC(=O)c1ccncc1 [Isoniazid] (top concentration 46.0829 µM)")
130
>>> measured("CCC[S+](=O)([O-])Nc1ccc(F)c(C(=O)c2c[nH]c3ncc(-c4ccc(Cl)cc4)cc23)c1F [Vemurafenib] (top concentration 46.0829 µM)")
38
>>> measured("COC\\1=C(/OC)C(=O)\\C(=C(C)/C1=O)CCCCCCCCCCO [Idebenone] (top concentration 46.0829 µM)")
101
>>> measured("CN1CC[C@H]([C@@H](O)C1)C2=C(O)C=C(O)C3=C2O\\C(=C/C3=O)C4=CC=CC=C4Cl (top concentration 46.0829 µM)")
45.6
>>> measured("Cc1nc2ccc(CN(C)c3ccc(C(=O)N[C@@H](CCC(=O)O)C(=O)O)s3)cc2c(=O)[nH]1 [Raltitrexed] (top concentration 46.0829 µM)")
66.5
>>> measured("O=C1CCC[C@@H]2[C@H]3CCCN4CCC[C@@H](CN12)[C@@H]34 [Matrine] (top concentration 46.0829 µM)")
119
>>> measured("O=C(Nc1ccccc1-c1cn2c(CN3CCNCC3)csc2n1)c1cnc2ccccc2n1 [SRT1720] (top concentration 46.0829 µM)")
7.57

In plain terms, CCOC(=O)\C1=C\[C@]2(CC)CCCN3CCC4=C([C@H]23)[N]1C5=C4C=CC=C5 [Vinpocetine] (top concentration 46.0829 µM) has a documented viability of 4.04

In plain terms, CCc1nc(N)nc(N)c1-c1ccc(Cl)cc1 [Pyrimethamine] (top concentration 46.0829 µM) has a documented viability of 27.6

In plain terms, Cl.Cl.Fc1ccc(C(OCCN2CCN(CCCc3ccccc3)CC2)c2ccc(F)cc2)cc1 [Vanoxeamine] (top concentration 46.0829 µM) has a documented viability of 39.6

In plain terms, O=C(Nc1cccc(Br)c1)c1cccc([S+](=O)([O-])N2CCCCCC2)c1 [Ak-7] (top concentration 46.0829 µM) has a documented viability of 38.5

In plain terms, Cc1ccccc1C(OCCN(C)C)c1ccccc1 (stereo not drawn) [Orphenadrine hydrochloride] (top concentration 46.0829 µM) has a documented viability of 111

In plain terms, CCC(C)(Oc1ccc(C2(c3ccc(OC(C)(CC)C(=O)O)cc3)CCCCC2)cc1)C(=O)O (stereo not drawn) [Clinofibrate] (top concentration 46.0829 µM) has a documented viability of 52.9

In plain terms, ClC1=CC=C(C=C1)C(C#N)C2=C(Cl)C=C(C=C2Cl)N3\N=C/C(=O)NC3=O (stereo not drawn) [Diclazuril] (top concentration 46.0829 µM) has a documented viability of 61

In plain terms, CC1(C)CCC(=C(\C1)C2=CC=C(Cl)C=C2)/CN3CCN(CC3)C4=CC(=C(C=C4)C(=O)N[S+]([O-])(=O)C5=CC=C(NCC6CCOCC6)C(=C5)[N+]([O-])=O)OC7=CN=C8[NH]C=CC8=C7 [ABT-199] (top concentration 46.0829 µM) has a documented viability of 21.7
